All figures here come from patent US11498899B2.

Tested on: ragweed (common ragweed, Ambrosia elatior)
method_notes: Test A postemergence, visual injury rating 0-100
Format: in vivo
measurement_setup: 500 g ai/ha, 0 to 100 scale
readout: Ragweed plant response rating
Simply state the number, no unit and no words.

Past entries and their recorded results:
| compound | Ragweed plant response rating |
| --- | --- |
| CC1=[N+]([O-])C(C(=O)Nc2cccc(F)c2F)C(c2cc(C)cc(Cl)c2)C1 (stereo not shown) [Compound 94] | 70 |
| CSc1ccccc1NC(=O)C1C(c2ccc(C(F)(F)F)cc2)CC(C)=[N+]1[O-] (racemic) [Compound 29] | 60 |
| CC1=[N+]([O-])C(C(=O)Nc2cccc(F)c2F)C(c2cccc(C(F)(F)F)c2C)C1 (racemic) [Compound 106] | 70 |
| CC1=[N+]([O-])C(C(=O)Nc2cccc(F)c2F)C(c2cc(F)ccc2C)C1 (racemic) [Compound 81] | 0 |
| CC1=[N+]([O-])C(C(=O)Nc2cccc(F)c2F)C(c2cccc(F)c2)C1 (racemic) [Compound 8] | 0 |
| CCC1=[N+]([O-])C(C(=O)Nc2cccc(F)c2F)C(c2ccc(C(F)(F)F)cc2)C1 (racemic) [Compound 120] | 40 |

Ask: What does the data say about its Ragweed plant response rating? Entry: CC1=[N+]([O-])C(C(=O)Nc2cccc(F)c2F)C(c2ccccc2)C1 (racemic) [Compound 16]
Result: 20

###

Test system: kochia (Kochia scoparia)
method_notes: Test A preemergence, visual injury rating 0-100
Type: in vivo
measurement_setup: 500 g ai/ha
If the reported Kochia plant response rating (0 to 100 scale) equals or exceeds 30, assign satisfied. If not, assign not satisfied.

| compound | group |
| --- | --- |
| CC1=[N+]([O-])C(C(=O)Nc2cccc(F)c2F)C(c2cccc(Cl)n2)C1 (stereo not shown) | not satisfied |

Ask: Hi team, for CC1=[N+]([O-])C(C(=O)Nc2cccc(F)c2F)C(c2cccc(C(F)(F)F)n2)C1 (stereo not shown) , is the recorded Kochia plant response rating (0 to 100 scale) at or above 30?
Result: satisfied

Ask: Test whether the compound CCOc1cc(OC)cc(C2CC(C)=[N+]([O-])C2C(=O)Nc2cccc(F)c2F)c1 (racemic) records Kochia plant response rating (0 to 100 scale) of 30 or higher.
Result: not satisfied

Ask: Determine whether this compound has Kochia plant response rating (0 to 100 scale) no lower than 30: COc1cc(OC)cc(C2CC(C)=[N+]([O-])C2C(=O)Nc2cccc(F)c2F)c1 (stereo not shown)
Result: satisfied

Ask: Decide: Kochia plant response rating (0 to 100 scale) of CC1=[N+]([O-])[C@H](C(=O)Nc2cccc(F)c2F)[C@@H](c2ccc(C(F)F)cc2)C1 (relative stereo) >= 30?
Result: satisfied

Ask: Hi, just wondering whether CC1=[N+]([O-])C(C(=O)Nc2cccc(F)n2)C(c2ccc(C(F)(F)F)cc2)C1 (racemic) shows Kochia plant response rating (0 to 100 scale) of 30 or higher.
Result: satisfied

###

System: barnyardgrass (Echinochloa crus-galli)
method_notes: Test B flooded paddy test, visual rating 0-100
measurement_setup: Flood, 250 g ai/ha, applied to paddy water, rated after 13 to 15 days
readout: Barnyardgrass plant response rating (0 to 100 scale)
Write the value as a bare number.

Field: example entries. Status: answers known.
| compound | target_under_test | recorded_number |
| --- | --- | --- |
| CC1=[N+]([O-])C(C(=O)Nc2cccc(F)c2F)C(c2cccc(Oc3ccc(Cl)cn3)c2)C1 (racemic) [Compound 56] | barnyardgrass (Echinochloa crus-galli) | 25 |
| CC1=[N+]([O-])C(C(=O)Nc2cccc(F)c2F)C(c2ccc(C(F)(F)F)c(C)c2)C1 (racemic) [Compound 87] | barnyardgrass (Echinochloa crus-galli) | 50 |
| CC1=[N+]([O-])C(C(=O)Nc2cccc(F)c2F)C(c2ccc(Cl)c(F)c2)C1 (racemic) [Compound 107] | barnyardgrass (Echinochloa crus-galli) | 40 |

Ask: Which Barnyardgrass plant response rating (0 to 100 scale) value is on record for CC1=[N+]([O-])C(C(=O)Nc2cccc(F)n2)C(c2ccc(C(F)(F)F)cc2)C1 (racemic) [Compound 47] ?
Result: 40

Ask: // Barnyardgrass plant response rating (0 to 100 scale) lookup, key: CCC1=[N+]([O-])C(C(=O)Nc2cccc(F)c2F)C(c2ccc(C(F)(F)F)cc2)C1 (racemic) [Compound 120]
Result: 15

Ask: Item CC1=[N+]([O-])C(C(=O)Nc2cccc(F)c2F)C(c2cccc(C(C)C)c2)C1 (racemic) [Compound 12] has what recorded Barnyardgrass plant response rating (0 to 100 scale)?
Result: 70

Ask: Give the measured Barnyardgrass plant response rating (0 to 100 scale) of CC1=[N+]([O-])C(C)(C(=O)Nc2cccc(F)c2F)C(c2ccc(C(F)(F)F)cc2)C1 (racemic) [Compound 1] .
Result: 70

Ask: Suppose we examine the compound CC1=[N+]([O-])C(C(=O)Nc2cccc(F)c2F)C(c2ccc(OC(F)(F)F)c(F)c2)C1 (racemic) [Compound 113] ; what Barnyardgrass plant response rating (0 to 100 scale) value has been reported?
Result: 0

###

System: barnyardgrass (Echinochloa crus-galli)
method_notes: Test B flooded paddy test, visual rating 0-100
measurement_setup: Flood, 250 g ai/ha, applied to paddy water, rated after 13 to 15 days
readout: Barnyardgrass plant response rating (0 to 100 scale)

| molecule | result |
| --- | --- |
| CC1=[N+]([O-])C(C(=O)Nc2cccc(F)c2F)C(c2ccccc2C)C1 (racemic) [Compound 11] | 90 |

Ask: Report Barnyardgrass plant response rating (0 to 100 scale) for CC1=[N+]([O-])C(C(=O)Nc2cccc(F)c2F)C(c2ccc(C(F)(F)F)c(Cl)c2)C1 (racemic) [Compound 102] tested on barnyardgrass (Echinochloa crus-galli).
Result: 0

Ask: Field: Barnyardgrass plant response rating (0 to 100 scale) (barnyardgrass (Echinochloa crus-galli)). Entry: CC1=[N+]([O-])C(C(=O)Nc2cccc(F)c2F)C(c2ccc(=O)n(Cc3ccc(Cl)cc3)c2)C1 (racemic) [Compound 119]
Result: 0

###

Test system: foxtail, green (green foxtail, Setaria viridis)
method_notes: Test A postemergence, visual injury rating 0-100
Type: in vivo
measurement_setup: 125 g ai/ha, 0 to 100 scale
readout: Foxtail, Green plant response rating

Please review the entries below; each comes with its answer.
| compound | readout | result |
| --- | --- | --- |
| CC1=[N+]([O-])[C@@H](C(=O)Nc2ccccc2F)[C@H](c2ccc(C(F)(F)F)cc2)C1 (relative stereo) [Compound 26] | Foxtail, Green plant response rating | 50 |
| CC1=[N+]([O-])C(C(=O)Nc2ccc(F)c(F)c2F)C(c2ccc(C(F)(F)F)cc2)C1 (racemic) [Compound 38] | Foxtail, Green plant response rating | 70 |
| CC1=[N+]([O-])C(C(=O)Nc2cccc(F)c2F)C(c2cccc(C#N)c2)C1 (racemic) [Compound 23] | Foxtail, Green plant response rating | 30 |
| CC1=[N+]([O-])C(C(=O)Nc2cccc(F)c2F)C(c2ccc(C)c(C)c2)C1 (racemic) [Compound 24] | Foxtail, Green plant response rating | 80 |

Ask: So what does the record say about Foxtail, Green plant response rating for CC1=[N+]([O-])[C@H](C(=O)Nc2cccc(F)c2F)[C@@H](c2ccc(C(F)(F)F)cc2)C1 [Compound 30] ?
Result: 80

Ask: Entry CSc1ccccc1NC(=O)C1C(c2ccc(C(F)(F)F)cc2)CC(C)=[N+]1[O-] (racemic) [Compound 29] : reported Foxtail, Green plant response rating = ?
Result: 20

Ask: Report Foxtail, Green plant response rating for CC1=[N+]([O-])C(C(=O)Nc2cccc(F)n2)C(c2ccc(C(F)(F)F)cc2)C1 (racemic) [Compound 47] please.
Result: 50

Ask: Query (compound): CC1=[N+]([O-])[C@@H](C(=O)Nc2cccc(F)c2F)[C@H](c2cccc(C(F)(F)F)c2)C1 [Compound 45] ; field requested: Foxtail, Green plant response rating
Result: 80

Ask: What value of Foxtail, Green plant response rating has been reported for the following compound? CC1=[N+]([O-])C(C(=O)Nc2ccccc2C(F)(F)F)C(c2ccc(C(F)(F)F)cc2)C1 (racemic) [Compound 33]
Result: 0

Ask: Look up Foxtail, Green plant response rating for this compound: CC1=[N+]([O-])[C@H](C(=O)Nc2cccc(F)c2F)[C@@H](c2ccc3c(c2)OC(F)(F)O3)C1 (relative stereo) [Compound 25]
Result: 40

Ask: State the recorded Foxtail, Green plant response rating for this entry: CC1=[N+]([O-])C(C(=O)Nc2cccc(F)c2Cl)C(c2ccc(C(F)(F)F)cc2)C1 (racemic) [Compound 31]
Result: 40

###

Reported Foxtail, Giant plant response rating (0 to 100 scale) values for the following molecules.
System: foxtail, giant (giant foxtail, Setaria faberii)
method_notes: Test A preemergence, visual injury rating 0-100
Type: in vivo
measurement_setup: 125 g ai/ha

Examples from the recorded data:
| molecule | target_under_test | result |
| --- | --- | --- |
| CC1=[N+]([O-])C(C(=O)Nc2cccc(F)c2F)C(c2ccc(Cl)c(F)c2)C1 (racemic) [Compound 107] | foxtail, giant (giant foxtail, Setaria faberii) | 90 |
| CC1=[N+]([O-])C(C(=O)Nc2cccc(F)c2F)C(c2ccc(Br)cn2)C1 (racemic) [Compound 66] | foxtail, giant (giant foxtail, Setaria faberii) | 10 |

Ask: I would be grateful if you could share the reported Foxtail, Giant plant response rating (0 to 100 scale) for CC1=[N+]([O-])C(C(=O)Nc2cccc(F)c2F)C(c2cc(C)cc(Cl)c2)C1 (stereo not shown) [Compound 94] .
Result: 90

Ask: Dear colleague, I am looking for the recorded Foxtail, Giant plant response rating (0 to 100 scale) of the following molecule: CC1=[N+]([O-])C(C(=O)Nc2cccc(F)c2F)C(c2cccc(Cl)n2)C1 (stereo not shown) [Compound 89]
Result: 0

Ask: Which measured Foxtail, Giant plant response rating (0 to 100 scale) value corresponds to CC1=[N+]([O-])C(C(=O)Nc2cccc(F)c2F)C(c2ccc(C)c(Cl)c2)C1 (racemic) [Compound 72] ?
Result: 90

Ask: Dear colleague, I am looking for the recorded Foxtail, Giant plant response rating (0 to 100 scale) of the following molecule: CC1=[N+]([O-])C(C(=O)Nc2cccc(F)c2F)C(c2cccc(C(C)C)c2)C1 (racemic) [Compound 12]
Result: 100

Ask: Foxtail, Giant plant response rating (0 to 100 scale) lookup needed for CCOc1cc(OC)cc(C2CC(C)=[N+]([O-])C2C(=O)Nc2cccc(F)c2F)c1 (racemic) [Compound 116] , thanks.
Result: 90
